The reported numbers originate from patent US12274693B2.

Assay Notes: Lipophilicity and solubility of the compounds
Format: physicochemical
Measurement Parameters: 80% acetonitrile, organic solvent or mixture
Value Type: solubility

Task: Supply reported solubility belonging to this compound: `COc1ccc2oc(C(=O)Nc3ccc(C(=O)Nc4ccc(-c5nc6ccccc6o5)cc4)cc3)c(C)c2c1`
Result: < 0.1 mg/mL

====

Target System: PCSK9/LDLR interaction (His-tagged PCSK9, recombinant LDLR-AB domain) (Homo sapiens, UniProt Q8NBP7)
Construct: purchased Circulex
Sequence (Q8NBP7 153-692): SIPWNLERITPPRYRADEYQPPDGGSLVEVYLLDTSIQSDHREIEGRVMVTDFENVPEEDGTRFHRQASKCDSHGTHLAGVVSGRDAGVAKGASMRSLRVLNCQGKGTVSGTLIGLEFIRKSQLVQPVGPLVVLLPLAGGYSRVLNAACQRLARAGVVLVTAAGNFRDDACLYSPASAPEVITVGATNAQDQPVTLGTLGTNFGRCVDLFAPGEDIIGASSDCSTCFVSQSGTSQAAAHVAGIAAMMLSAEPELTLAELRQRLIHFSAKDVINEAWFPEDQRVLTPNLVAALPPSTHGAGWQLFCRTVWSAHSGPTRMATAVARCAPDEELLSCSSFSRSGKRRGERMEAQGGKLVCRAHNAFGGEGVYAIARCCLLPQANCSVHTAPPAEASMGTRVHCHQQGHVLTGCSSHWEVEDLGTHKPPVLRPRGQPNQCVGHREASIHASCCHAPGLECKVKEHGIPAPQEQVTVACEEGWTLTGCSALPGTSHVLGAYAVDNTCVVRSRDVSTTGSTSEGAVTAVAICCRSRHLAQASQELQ
Sequence (Q8NBP7 31-152 partner limits assumed): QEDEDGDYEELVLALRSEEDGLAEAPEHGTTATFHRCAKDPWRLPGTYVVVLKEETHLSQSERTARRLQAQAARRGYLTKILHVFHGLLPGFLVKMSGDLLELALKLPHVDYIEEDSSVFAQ
Assay Notes: In vitro ELISA binding assay (Circulex) for inhibition of the PCSK9/LDLR interaction
Measurement Parameters: ELISA, FIG. 4A
Value Type: IC50 for inhibition of the PCSK9/LDLR interaction, range in words

Input Smiles	Value Measured
O=C(Nc1ccc(C(=O)Nc2ccc(-c3ncco3)cc2)c(F)c1)c1cc2ccccc2o1	low micro-molar
O=C(Nc1ccc(-c2ncco2)cc1)c1ccc(NC(=O)c2cc3ccccc3o2)cc1	sub-micro-molar
COc1ccc2oc(C(=O)Nc3ccc(C(=O)Nc4ccc(-c5nc6ccccc6[nH]5)cc4)cc3)c(C)c2c1	sub-micro-molar
COc1ccc2oc(C(=O)Nc3ccc(C(=O)Nc4ccc(-c5nc6ccccc6o5)cc4)cc3)c(C)c2c1	sub-micro-molar

Lab note: next molecule to report on.
Task: Supply reported IC50 for inhibition of the PCSK9/LDLR interaction, range in words belonging to this molecule: `COc1ccc2oc(C(=O)Nc3ccc(C(=O)Nc4ccc(-c5ncco5)cc4)cc3)c(C)c2c1`
Result: low micro-molar
